Test system: RXF 393 renal
Assay: NCI-60 one-dose screen, 48 h (100 = growth as untreated, 0 = no growth, -100 = all killed)
Conditions: 10 µM unless noted
Procedure: Cells are grown in 96 well plates and exposed to the test compound for 48 hours. Compounds are tested at a single concentration, which is 10^-5 M for most compounds. The reported endpoint is percent growth (GI% or GIPRCNT), where numbers from 0 - 100% represent growth inhibition, and numbers from -100% - 0 represent cell death. For example, a value of 40 represents 60% growth inhibition. A value of 0 means no net growth occurred over the course of the experiment. […]
The panel holds about 83,000 compounds, 20% with a hit somewhere; the sample as a whole holds those more often.
readout: growth (%)
Your answer should be a plain number; it is taken to be in %.

Use these answered entries as a reference point.
{"compound": "CN(C)c1ncc(-c2ccc(C(F)(F)F)cc2)c(NC2CCCCCC2)n1", "growth / %": 78.8}
{"compound": "Nc1c(C(=O)Nc2cccc(C(F)(F)F)c2)sc2nc3c(cc12)CCCCC3", "growth / %": -20.7}
{"compound": "COc1cc(/C=C\\c2cc(OC)c(OC)c(OC)c2)cc(N/C=C\\C(=O)c2c[nH]c3ccccc23)c1OC", "growth / %": -35.3}

// switching to the query compound
Consider "ClC1=C(Cl)C(Cl)=C(Cl)C1=Cc1ccc(Cl)cc1Cl" . Its measured growth is -94.8

====

System: OVCAR-4 ovarian
Assay: NCI-60 one-dose screen, 48 h (100 = growth as untreated, 0 = no growth, -100 = all killed)
Settings: 10 µM unless noted
This is part of a sample that, as a whole, favours compounds with a hit. Of some 83,000 tested, about 20% had one in any assay. Activity calls are given as the source filed them. The calls were made as follows: active = growth percent below 10; inactive = the rest.
Known growth of a selection of molecules

{"molecule": "COC(=O)CC/C(C)=N\\Nc1ccc([N+](=O)[O-])cc1", "growth": "76.3% (inactive)"}
{"molecule": "COc1ccc(N=C2NN=C(c3ccc(F)cc3)CS2)cc1OC", "growth": "103% (inactive)"}
{"molecule": "C=CCOc1ccc(/C(O)=C2\\C(=O)C(=O)N(c3nccs3)C2c2ccccc2F)cc1 (stereo unspecified)", "growth": "81.3% (inactive)"}
{"molecule": "O=C(CNc1c(Cl)cccc1Cl)Nc1ccc(-c2nc3ccccc3s2)cc1", "growth": "17.5% (inactive)"}
{"molecule": "CCCCC(N)(C(=O)O)C1CCCC1 (stereo unspecified)", "growth": "103% (inactive)"}

// switching to the query molecule
Kindly note: OVCAR-4 ovarian, "COc1cc2nc(Cl)nc(NCCO)c2cc1OC" , growth value reported: 102% (inactive)

====

Test system: COLO 205 colon
Experiment: NCI-60 one-dose screen, 48 h (100 = growth as untreated, 0 = no growth, -100 = all killed)
Conditions: 10 µM unless noted
Protocol: Cells are grown in 96 well plates and exposed to the test compound for 48 hours. Compounds are tested at a single concentration, which is 10^-5 M for most compounds. The reported endpoint is percent growth (GI% or GIPRCNT), where numbers from 0 - 100% represent growth inhibition, and numbers from -100% - 0 represent cell death. For example, a value of 40 represents 60% growth inhibition. A value of 0 means no net growth occurred over the course of the experiment. […]
Compounds without any hit were thinned out: in the full panel of roughly 83,000, 20% have a hit.
Record label 1 whenever growth is at 40% or higher; record label 0 when lower.

Below, 3 compounds whose answers are already recorded.
{"compound": "CCC1CCc2nc3sc(C(=O)Nc4cccc(C)c4)c(N)c3cc2C1 (stereo unspecified)", "assay-system": "COLO 205 colon", "class-name": "label 1"}
{"compound": "Cc1ccc2c(c1)C(C)Cc1c(N(C)C)ncnc1N2C (stereo unspecified)", "assay-system": "COLO 205 colon", "class-name": "label 0"}
{"compound": "Cc1nc(Nc2cccnc2)sc1C(=O)/C=C/c1ccc(Cl)cc1", "assay-system": "COLO 205 colon", "class-name": "label 1"}

Next, consider the following compound.
Task: Check this compound for growth at or above 40%: "ClC1=C(Cl)C(Cl)=C(Cl)C1=Cc1ccc(Cl)cc1Cl"
Result: label 0

====

System: SF-295 CNS
Test: NCI-60 one-dose screen, 48 h (100 = growth as untreated, 0 = no growth, -100 = all killed)
Conditions: 10 µM unless noted
Protocol: Cells are grown in 96 well plates and exposed to the test compound for 48 hours. Compounds are tested at a single concentration, which is 10^-5 M for most compounds. The reported endpoint is percent growth (GI% or GIPRCNT), where numbers from 0 - 100% represent growth inhibition, and numbers from -100% - 0 represent cell death. For example, a value of 40 represents 60% growth inhibition. A value of 0 means no net growth occurred over the course of the experiment. […]
The panel holds about 83,000 compounds, 20% with a hit somewhere; the sample as a whole holds those more often.
readout: growth (%)
Your answer should be a plain number; it is taken to be in %.

Use these answered entries as a reference point.
{"compound": "N#Cc1ncc(-c2ccc(F)c(F)c2F)c(NC2CCCCCC2)n1", "assay-system": "SF-295 CNS", "growth / %": 97.8}
{"compound": "COc1ccc(C(=O)c2cc(OC)c(OC)c(OC)c2)cc1/C=C/C(=O)c1ccc2c(c1)OCO2", "assay-system": "SF-295 CNS", "growth / %": 77.3}
{"compound": "C#CCN1C(=O)/C(=c2\\sc3n(c2=O)C2C(NN=3)N(CC)C(=O)N2CC)c2ccccc21 (stereo unspecified)", "assay-system": "SF-295 CNS", "growth / %": -13}
{"compound": "O=C(CCCn1c(=O)c2sc3ccccc3c2n2nnc(-c3ccccc3)c12)NCCc1cnc[nH]1", "assay-system": "SF-295 CNS", "growth / %": 8.37}

// switching to the query compound
Consider "Cc1nc(Nc2cccnc2)sc1C(=O)/C=C/c1ccc(F)cc1" . Its measured growth is 42.4

====

Tested on: RXF 393 renal
Test: NCI-60 one-dose screen, 48 h
Settings: 10 µM unless noted
The panel holds about 83,000 compounds, 20% with a hit somewhere; the sample as a whole holds those more often. Active and inactive are the calls of the source. The calls were made as follows: active = growth percent below 10; inactive = the rest.
Your answer must be one of the following: active, inactive

Task: So what was the verdict on "CC1=C(C#N)C(C)(C)C(C#N)=C(C)N1" in this test?
Result: inactive

Task: So what was the verdict on "COc1ccc(/C=C/c2nc(N3CCOCC3)c3cc(F)c(F)cc3n2)cc1OC" in this test?
Result: inactive

Task: So what was the verdict on "CCCCCCc1nc2c(c(C)nn2-c2ccccc2)c2c1CCCCC2" in this test?
Result: inactive

Task: So what was the verdict on "O=S(=O)(NCCCNc1cc(-c2cn(-c3ccccc3)nc2-c2cccc(O)c2)ccn1)c1ccc(C(F)(F)F)cc1" in this test?
Result: inactive

Task: So what was the verdict on "N#Cc1ccc(NC(=O)c2ccc3cccnc3c2O)cc1" in this test?
Result: inactive

Task: So what was the verdict on CCCCCCC[C@@H](O)CC(=O)N[C@H](CCCCN)C(=O)N[C@H](Cc1c[nH]c2ccccc12)C(=O)NC(CCCCN)C(=O)N[C@H](CC(C)C)C(=O)N[C@H](Cc1ccccc1)C(=O)N[C@H](CCCCN)C(=O)N[C@H](CCCCN)C(=O)N[C@H](CC(C)C)C(=O)N1CCCC1C(=O)N[C@H](CCCCN)C(=O)N[C@H](Cc1ccccc1)C(=O)N[C@H](CC(C)C)C(=O)N[C@H](Cc1c[nH]cn1)C(=O)N[C@H](CC(C)C)C(=O)N[C@H](C)C(=O)N[C@H](CCCCN)C(=O)N[C@H](CCCCN)C(=O)N[C@H](Cc1ccccc1)C(=O)O (some centres not stated) in this test?
Result: active

====

Test system: NCI/ADR-RES ovarian
Experiment: NCI-60 one-dose screen, 48 h (100 = growth as untreated, 0 = no growth, -100 = all killed)
Details: 10 µM unless noted
Compounds without any hit were thinned out: in the full panel of roughly 83,000, 20% have a hit.
readout: growth (%)
Your answer should be a plain number; it is taken to be in %.

{"compound": "CCOC(=O)/C=C\\C(=O)NC(N)=O", "assay-system": "NCI/ADR-RES ovarian", "units-of-measure": "%", "growth": 106}

Consider "COc1ccc(-c2cn[nH]c2-c2cc(OC)c3c(c2)OCO3)cc1" . Its measured growth is 5.12

Consider "O=S(=O)(NCCCNc1cc(-c2cn(-c3ccccc3)nc2-c2cccc(O)c2)ccn1)c1cccc(F)c1" . Its measured growth is 49.3

Consider "CN(C)c1ccc(/C=C\N=Nc2ccc(Br)cc2)cc1" . Its measured growth is 52.3

Consider "Nc1nc(-c2ccccc2)cs1" . Its measured growth is 110

Consider COc1ccc(C2NC3=C(CCCC3)C(C#N)(C#N)C2(C#N)C#N)cc1 (centres undefined) . Its measured growth is 101

Consider CN(C)c1ccc(C2CC(c3ccccc3)=NN2/C=C2\SC(=O)NC2=O)cc1 (centres undefined) . Its measured growth is 95.2

Consider "COc1cccc(/C=C/C(=O)c2sc(Nc3ccc(O)cc3)nc2C)c1" . Its measured growth is 99

Consider "CCN(Cc1ccc(CN(CC)C(=O)C(Cl)(Cl)Cl)cc1)C(=O)C(Cl)(Cl)Cl" . Its measured growth is 86.6

Consider "COc1cc2c(cc1OCCCCn1c(-c3cc(=O)c4ccccc4o3)nc3ccccc31)N=C[C@@H]1CCCN1C2=O" . Its measured growth is 110

Consider "CCNCc1ccncc1" . Its measured growth is 106

Consider OC1CC2c3ccccc3C1c1ccccc12 (centres undefined) . Its measured growth is 110

Consider "CN1CCN(CCCOc2ccc3nc(Nc4ccc(C(F)(F)F)c(Cl)c4)ccc3c2)CC1" . Its measured growth is 20.4

Consider CC(Br)C(O)c1cc2c(cc1Br)OCO2 (centres undefined) . Its measured growth is 105

Consider "CC(C)CCN(CCCNc1c2c(nc3ccccc13)CCCC2)CCC(C)C" . Its measured growth is 87.8

Consider "O=C(CCCn1c(=O)c2sc3ccccc3c2n2nnc(-c3ccccc3)c12)NCCc1cnc[nH]1" . Its measured growth is 36.1

Consider "COc1cc(-c2n[nH]nc2-c2ccc3c(c2)OCCO3)cc(OC)c1OC" . Its measured growth is 2.71

Consider CC(=O)Nc1ccc(S(=O)(=O)N2C(=O)CCC2C(=O)Nc2ccccc2)cc1 (centres undefined) . Its measured growth is 41.5

Consider "COc1cc(OC)c(C(=O)/C=C/c2ccc(C(F)(F)F)cc2)c(OC)c1" . Its measured growth is 46.9

Consider C#CCN1C(=O)/C(=c2\sc3n(c2=O)NC2C(N=3)N(CC)C(=O)N2CC)c2ccccc21 (centres undefined) . Its measured growth is 41.7

Consider "CC(=O)Nc1nc(C(=O)N2N=C(C)/C(=C/c3ccccc3)C2=O)cs1" . Its measured growth is 110

Consider COc1cc(C2C3=C(COC3=O)Nc3c2ccc2c3CCCC2)cc2c1OCO2 (centres undefined) . Its measured growth is 3.82

Consider CCCCCCC[C@@H](O)CC(=O)N[C@H](CCCCN)C(=O)N[C@H](Cc1c[nH]c2ccccc12)C(=O)NC(CCCCN)C(=O)N[C@H](CC(C)C)C(=O)N[C@H](Cc1ccccc1)C(=O)N[C@H](CCCCN)C(=O)N[C@H](CCCCN)C(=O)N[C@H](CC(C)C)C(=O)N1CCCC1C(=O)N[C@H](CCCCN)C(=O)N[C@H](Cc1ccccc1)C(=O)N[C@H](CC(C)C)C(=O)N[C@H](Cc1c[nH]cn1)C(=O)N[C@H](CC(C)C)C(=O)N[C@H](C)C(=O)N[C@H](CCCCN)C(=O)N[C@H](CCCCN)C(=O)N[C@H](Cc1ccccc1)C(=O)O (some centres undefined) . Its measured growth is -23.6

Consider "CCSc1nnc(NC(=O)COc2ccc(Cl)cc2C)s1" . Its measured growth is 106
